Recorded values, source patent US12129255B2.

# Assay Info: Metabolism in human hepatocytes
# Assay type: in vitro ADME
# Measurement Setup: human, cryopreserved hepatocytes in suspension, pH 7.4, 0.5×10^6 cells per milliliter
Reported Property: half-life at 0.5 μM

{"Compound": "Cn1nc(NS(C)(=O)=O)c2c(Cl)ccc(-n3c([C@H](Cc4cc(F)cc(F)c4)NC(=O)Cn4nc(C(F)F)c5c4C(F)(F)[C@@H]4C[C@H]54)nc4nc(OCCC(F)(F)F)ccc4c3=O)c21 (atropisomer, axis not shown; (P))", "Reported Property": "half-life at 0.5 μM", "Measured Value": "> 8 h"}

---

# Assay Info: IV pharmacokinetics in monkey
# Format: in vivo, Cynomolgus monkeys
# Measurement Setup: cynomolgus monkey, plasma; Monkey, IV 1 mg/kg

{"Compound": "Cn1nc(NS(C)(=O)=O)c2c(Cl)ccc(-n3c([C@H](Cc4cc(F)cc(F)c4)NC(=O)Cn4nc(C(F)F)c5c4C(F)(F)[C@@H]4C[C@H]54)nc4nc(OCCC(F)(F)F)ccc4c3=O)c21 (atropisomer, axis not shown; (P)) [Example 1]", "clearance (mL/min/kg)": 8.5}
